Tested on: T-47D spheroids with HUVEC/MSC, viability
Experiment: Anticancer human tumor T-47D cell line growth inhibition [PI3K];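 also: spheroids exposed to agents for seven days before reading; percent of DMSO vehicle control luminescence so 100% = untreated growth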
Conditions: second compound 1 µM; first compound 0.1 µM; stronger effect = lower value

Compound	viability, T/C
Cn1ncc(Cl)c1-c1cc(C(=O)NC(CN)Cc2cccc(F)c2)sc1Cl (stereo unspecified) + CC(Nc1ncnc2nc[nH]c12)c1cc2cccc(Cl)c2c(=O)n1-c1ccccc1	94.7%
C#Cc1c(F)ccc2cc(O)cc(-c3ncc4c(N5CC6CCC(C5)N6)nc(OCC56CCCN5CC(F)C6)nc4c3F)c12 (stereo unspecified) + Cc1nc(NC(=O)N2CCCC2C(N)=O)sc1-c1ccnc(C(C)(C)C(F)(F)F)c1	84.7%
CC(=O)c1c(C)c2cnc(Nc3ccc(N4CCNCC4)cn3)nc2n(C2CCCC2)c1=O + CC(Nc1ccc2c(c1)OCCn1cc(N3C(=O)OCC3C(F)F)nc1-2)C(N)=O	32.6%
Cn1nccc1Nc1nccc(-c2ccn(C(CO)c3ccc(Cl)c(F)c3)c(=O)c2)n1 (stereo unspecified) + CC(Nc1ncnc2nc[nH]c12)c1cc2cccc(Cl)c2c(=O)n1-c1ccccc1	108%
CC(Cn1ccc(-c2ccc(C#N)c(Cl)c2)n1)NC(=O)c1cc(C(C)O)[nH]n1 (stereo unspecified) + CC(Nc1ncnc2nc[nH]c12)c1cc2cccc(Cl)c2c(=O)n1-c1ccccc1	77.4%
CC(Cn1ccc(-c2ccc(C#N)c(Cl)c2)n1)NC(=O)c1cc(C(C)O)[nH]n1 (stereo unspecified) + Cc1nc(NC(=O)N2CCCC2C(N)=O)sc1-c1ccnc(C(C)(C)C(F)(F)F)c1	95.8%
CC(C)NCC(C(=O)N1CCN(c2ncnc3c2C(C)CC3O)CC1)c1ccc(Cl)cc1 (stereo unspecified) + COc1c(OCCCN2CCOCC2)ccc2c3n(c(=NC(=O)c4cnc(N)nc4)nc12)CCN3	5.08%
C=CC(=O)N1CCN(c2nc(=O)n(-c3c(C)ccnc3C(C)C)c3nc(-c4c(O)cccc4F)c(F)cc23)C(C)C1 (stereo unspecified) + CC(Nc1ccc2c(c1)OCCn1cc(N3C(=O)OCC3C(F)F)nc1-2)C(N)=O	47.2%
CC1(C)CCC(CN2CCN(c3ccc(C(=O)NS(=O)(=O)c4ccc(NCC5CCOCC5)c([N+](=O)[O-])c4)c(Oc4cnc5[nH]ccc5c4)c3)CC2)=C(c2ccc(Cl)cc2)C1 + Cc1nc(NC(=O)N2CCCC2C(N)=O)sc1-c1ccnc(C(C)(C)C(F)(F)F)c1	99.1%
C[C@@H](NC(=O)c1ncnc(N)c1Cl)c1ncc(C(=O)Nc2cc(C(F)(F)F)c(Cl)cn2)s1 + CC(Nc1ccc2c(c1)OCCn1cc(N3C(=O)OCC3C(F)F)nc1-2)C(N)=O	53.4%
CNC(=O)c1ccc(N2C(=S)N(c3ccc(C#N)c(C(F)(F)F)c3)C(=O)C2(C)C)cc1F + CC(Nc1ccc2c(c1)OCCn1cc(N3C(=O)OCC3C(F)F)nc1-2)C(N)=O	68%
